- method summary: Half life in ICR mouse at 10 mg/kg, po measured upto 24 hrs by LC-MS/MS analysis
- Assay type: ADME, organism-based
- experimental context: in vivo
readout kind: half-life
Number first, unit second.

Recorded half-life for Cc1cc(Nc2ncc(Cl)c(Nc3ccccc3S(=O)(=O)C(C)C)n2)c(OC(C)C)cc1C1CCN(C2CN(C3CCN(c4ccc5c(c4)C(=O)N(C4CCC(=O)NC4=O)C5=O)CC3)C2)CC1 (stereo unspecified) , please?
11.2 h

====

- method summary: Tmax in ICR mouse at 1 mg/kg, iv measured upto 24 hrs by LC-MS/MS analysis
- Format: ADME, organism-based
- experimental context: in vivo
readout kind: Tmax (min)
Give the quantity in min, number only.

Consider the compound shown here: Cc1cc(Nc2ncc(Cl)c(Nc3ccccc3S(=O)(=O)C(C)C)n2)c(OC(C)C)cc1C1CCN(C2CN(C3CCN(c4ccc5c(c4)C(=O)N(C4CCC(=O)NC4=O)C5=O)CC3)C2)CC1 (stereo unspecified) What is its recorded Tmax?
4.98

====

- method summary: Cmax in ICR mouse at 1 mg/kg, iv measured upto 24 hrs by LC-MS/MS analysis
- Assay type: ADME, organism-based
- experimental context: in vivo
readout kind: Cmax (ng/mL)
Respond numerically; units are ng/mL and should not be typed.

Can you look up the measured Cmax of Cc1cc(Nc2ncc(Cl)c(Nc3ccccc3S(=O)(=O)C(C)C)n2)c(OC(C)C)cc1C1CCN(C2CN(C3CCN(c4ccc5c(c4)C(=O)N(C4CCC(=O)NC4=O)C5=O)CC3)C2)CC1 (stereo unspecified) for me?
3000

====

- method summary: MRT(0 to t) in ICR mouse at 1 mg/kg, iv measured upto 24 hrs by LC-MS/MS analysis
- Type: ADME, organism-based
- experimental context: in vivo
readout kind: MRT last at 24 h
Please state the value followed by its unit.

Name the reported MRT last at 24 h value associated with the compound Cc1cc(Nc2ncc(Cl)c(Nc3ccccc3S(=O)(=O)C(C)C)n2)c(OC(C)C)cc1C1CCN(C2CN(C3CCN(c4ccc5c(c4)C(=O)N(C4CCC(=O)NC4=O)C5=O)CC3)C2)CC1 (stereo unspecified)
7.19 h
